- Tested on: T-47D breast
- assay-overview: NCI tumour cell line growth inhibition, 48 h
Measured TGI, listed per entry for reference.
Value expressed in µM; do not type the unit.

compound: COc1cc(NS(C)(=O)=O)ccc1Nc1c2ccc([N+](=O)[O-])cc2nc2c(C)cccc12
unit-symbol: µM
TGI: 7.68

INPUT: Which TGI reading was recorded for the compound "F" ?
OUTPUT: 5670

INPUT: Which TGI reading was recorded for the compound COc1ccc(/C=C2\CCCC(CN(C)C)C2=O)cc1 (stereo not given) ?
OUTPUT: 7.72

INPUT: Which TGI reading was recorded for the compound "C=C1C(=O)O[C@H]2[C@H]1CC/C(CNC(=O)Cc1c[nH]c3ccccc13)=C\CC[C@@]1(C)O[C@@H]21" ?
OUTPUT: 8.16

INPUT: Which TGI reading was recorded for the compound "O=C(/C=C1\N=C(c2ccccc2)N(c2nc3ccc(Sc4ccccc4)cc3[nH]2)C1=O)/C=C/c1ccccc1" ?
OUTPUT: 82.6

---

- Tested on: RXF 393 renal
- assay-overview: NCI tumour cell line growth inhibition, 48 h
Measured log10 of TGI, listed per entry for reference.
Reminder: these figures are log10 of reported TGI, in µM before transformation.

Sample records with log10 of TGI:
compound: COc1ccccc1/C=C(\C#N)c1ccccc1
log10 of TGI: 1.84
//
compound: CC(C)(C)c1cc(C(=O)Nc2cc(Br)c(Br)cc2S(N)(=O)=O)cc(C(C)(C)C)c1O
log10 of TGI: 1.36

INPUT: Which log10 of TGI reading was recorded for the compound "O=C[C@@H](CO)O[C@H](C=O)c1c[nH]c(=O)[nH]c1=O" ?
OUTPUT: 2.21

INPUT: Which log10 of TGI reading was recorded for the compound "CC[C@@]1(N(C)C)C(=O)OCc2c1cc1n(c2=O)Cc2cc3ccccc3nc2-1" ?
OUTPUT: 1.49

INPUT: Which log10 of TGI reading was recorded for the compound "Cc1nc(-c2cccc(Nc3nc(-c4ccc(Cl)cc4)cs3)c2)cs1" ?
OUTPUT: 1.28

INPUT: Which log10 of TGI reading was recorded for the compound "CCCCCCCCCCCCNC(C)=O" ?
OUTPUT: 1.64

INPUT: Which log10 of TGI reading was recorded for the compound CC1(C)CC23C4COC(=O)C2CCC1C3CC4=O (stereo unspecified) ?
OUTPUT: 0.68

INPUT: Which log10 of TGI reading was recorded for the compound "Cc1c(N2CCCC2)cc2c(c1NC(=O)c1ccccc1Cl)C(C)(C)CC2(C)C" ?
OUTPUT: 1.44

INPUT: Which log10 of TGI reading was recorded for the compound COC(=O)[C@@]12C(=O)C=CC(=O)[C@@H]1C1C(=CC2COC(C)=O)O[C@@H]2OC3(CCCCC3)O[C@H]12 (stereo partly specified) ?
OUTPUT: 1.37

INPUT: Which log10 of TGI reading was recorded for the compound "C=C(CN(C)C)C(=O)c1ccccc1C" ?
OUTPUT: 1.25

INPUT: Which log10 of TGI reading was recorded for the compound "O=C(Nc1ccc(Cl)c(Cl)c1)c1cccc(NC2=C(Cl)C(=O)N(Cc3ccccc3)C2=O)c1" ?
OUTPUT: 1.82

INPUT: Which log10 of TGI reading was recorded for the compound "CCOC(=O)Nc1cc2nnc(-c3ccccc3)nc2c(N)n1" ?
OUTPUT: 1.73

INPUT: Which log10 of TGI reading was recorded for the compound "O=C1c2c(Cl)c(Cl)c(Cl)c(Cl)c2C(=O)N1CCN(c1c(Cl)ssc1=O)c1c(Cl)ssc1=O" ?
OUTPUT: 1.54

INPUT: Which log10 of TGI reading was recorded for the compound "COc1ccc2nc3cc(Cl)ccc3c(NCCCN(Cc3cc(OC)c(OC)c(OC)c3)Cc3cc(OC)c(OC)c(OC)c3)c2c1" ?
OUTPUT: 1.18

---

- System: SK-OV-3 ovarian
- assay-overview: NCI tumour cell line growth inhibition, 48 h
outcome-measure: TGI (µM)
Value expressed in µM; do not type the unit.

Sample records with TGI:
molecule: CC(=O)NCCc1c2c(c3nccc4c3c1Nc1ccccc1-4)OCS2
result: 18.8
//
molecule: Cc1c2cc[n+](C)cc2c(C)c2c1sc1ccccc12
result: 14.3
//
molecule: CC[C@]1(O)CC(OC2CC(N(C)C)C(O)C(C)O2)c2c(cc3c(c2O)C(=O)c2c(O)cccc2C3=O)[C@@H]1C(=O)OC (some centres undefined)
result: 2.18
//
molecule: COc1ccc(C2CC(c3cc(OC)c(OC)c(OC)c3)=NO2)cc1OCCCCOc1cc2c(cc1OC)C(=O)N1CCC[C@H]1C=N2 (some centres undefined)
result: 9.46

Here is the next item to consider.
INPUT: Which TGI reading was recorded for the molecule "CCN(CC)CCOCC[C@H]1CC[C@H]2[C@@H]3[C@H](C)Cc4cc(OS(N)(=O)=O)ccc4[C@H]3CC[C@]12C" ?
OUTPUT: 3.2

---

- Tested on: KM12 colon
- assay-overview: NCI tumour cell line growth inhibition, 48 h
outcome-measure: TGI

Sample records with TGI:
compound: C=CC[n+]1c(/C=C/C=C2\N(C)c3ccccc3C2(C)C)sc2ccc(OC)cc21
outcome-measure: TGI
result: 11.7 µM
--
compound: Brc1ccc2[nH]cc(-c3csc(-c4ccccn4)n3)c2c1
outcome-measure: TGI
result: > 100 µM

INPUT: Which TGI reading was recorded for the compound C=CCN1CCC(OC(=O)C(O)(C#CC)C2CCCC2)CC1 (stereo not given) ?
OUTPUT: > 100 µM

INPUT: Which TGI reading was recorded for the compound "O=C(Nc1cccc(-n2ccc3c(NC(=O)c4ccccc4)nccc32)c1)c1ccc(N2CCOCC2)c(C(F)(F)F)c1" ?
OUTPUT: 1.36 µM

INPUT: Which TGI reading was recorded for the compound COc1ccc(C2=CC(c3ccccc3)n3nnnc3N2)cc1 (stereo not given) ?
OUTPUT: > 100 µM

INPUT: Which TGI reading was recorded for the compound "CCOC(=O)c1ccc(Nc2cnc3cc(C(F)(F)F)ccc3n2)cc1" ?
OUTPUT: > 100 µM

INPUT: Which TGI reading was recorded for the compound CC1CC(C)C(O)C(C2CC(CC(=O)NC3CCCCC3)CC(=O)O2)C1 (stereo not given) ?
OUTPUT: > 100 µM

INPUT: Which TGI reading was recorded for the compound "CS/C(=N\C(=S)N(C)C)N(c1ccccc1)c1nc(=[N+](C)C)ss1" ?
OUTPUT: 15.8 µM

INPUT: Which TGI reading was recorded for the compound Cc1cc2nc(C(C)C(=O)c3ccc(Cl)cc3)c(=O)[nH]c2cc1C (stereo not given) ?
OUTPUT: > 100 µM

INPUT: Which TGI reading was recorded for the compound "Nc1sc2c(c1C(=O)c1ccc(Cl)c(Cl)c1)CCCC2" ?
OUTPUT: > 100 µM

---

- Tested on: OVCAR-5 ovarian
- assay-overview: NCI tumour cell line growth inhibition, 48 h
outcome-measure: TGI

Sample records with TGI:
compound: O=C(Nn1c(-c2ccccc2)nc2ccccc2c1=O)c1ccc(CS)cc1
outcome-measure: TGI
result: > 100 µM
--
compound: Cc1ccc2c3c1O[C@H]1c4[nH]c5ccccc5c4C[C@@]4(O)[C@@H](C2)N(C)CC[C@]314
outcome-measure: TGI
result: 38.2 µM

INPUT: Which TGI reading was recorded for the compound "NNC(=O)CSc1nc2ccc(I)cc2c(=O)n1Cc1ccccc1" ?
OUTPUT: 40.9 µM

---

Measured TGI, listed per entry for reference.
- System: UACC-62 melanoma
- assay-overview: NCI tumour cell line growth inhibition, 48 h

Sample records with TGI:
compound: O=C(Nc1c(O)[nH]c(=S)[nH]c1=O)c1ccccc1F
TGI: > 100 µM
//
compound: NC(Cc1ccc(S(=O)(=O)O)cc1)C(=O)NC(CCCCNC(=O)NCCCCC(NC(=O)C(N)Cc1ccc(S(=O)(=O)O)cc1)C(=O)NC(Cc1ccc(S(=O)(=O)O)cc1)C(=O)O)C(=O)NC(Cc1ccc(S(=O)(=O)O)cc1)C(=O)O (stereo not drawn)
TGI: > 100 µM
//
compound: CC1(C)CCC[C@@]2(C)C1CCC1(C)C(CCc3ccoc3)/C(=C/OS(=O)(=O)O)CCC12 (stereo partly drawn) (tested in a mixture with another compound)
TGI: > 100 µM

INPUT: Which TGI reading was recorded for the compound "COC(=O)CCC(=O)C(=O)OC" ?
OUTPUT: 51100 µM

INPUT: Which TGI reading was recorded for the compound "CN(C)c1ccc(/C=c2/c3ccccc3n3c2c2ccccc2[n+]3C)cc1" ?
OUTPUT: 0.998 µM

INPUT: Which TGI reading was recorded for the compound "CC(C)(C)NNC(=O)/C(=C/c1ccc([N+](=O)[O-])cc1)NC(=O)c1ccccc1" ?
OUTPUT: > 100 µM

INPUT: Which TGI reading was recorded for the compound "Nc1cc2c3c(c1)Oc1cc(N)cc4c1C3c1c(cc(N)cc1O4)O2" ?
OUTPUT: > 69.6 µM

INPUT: Which TGI reading was recorded for the compound "Cc1ccc(-c2nc(C)c(C(=O)Nc3ccc(Cl)cc3)s2)cc1" ?
OUTPUT: 45.8 µM
